These entries and their values trace back to paper PMC7419507.

System: malignant pleural mesothelioma MESO-1 cells
procedure-summary: Cytotoxicity assay (CellTiter-Glo, 72 h), MESO-1
Format: cell-based
condition-details: conc 0.012207 uM; raw replicate data
property-name: MESO1 viability (%)
# unit: % | format: bare number

So for CO[C@@H]1C[C@H](C[C@@H](C)[C@@H]2CC(=O)[C@H](C)/C=C(\C)[C@@H](O)[C@@H](OC)C(=O)[C@H](C)C[C@H](C)/C=C/C=C/C=C(\C)[C@H](O)C[C@@H]3CC[C@@H](C)[C@@](O)(O3)C(=O)C(=O)N3CCCC[C@H]3C(=O)O2)CC[C@H]1O [Compound 17, (16R)-16-O-demethyl rapamycin] , the logged MESO1 viability (%) turned out to be 91.2

So for COC1CC2CCC(C)C(O)(O2)C(=O)C(=O)N2CCCCC2C(=O)OC(C(C)CC2CCC(O)C(OC)C2)CC(O)CC(=O)C(C)C=C(C)C(O)CC(=O)C(C)CC(C)C=CC=CC=C1C (stereo not shown) , the logged MESO1 viability (%) turned out to be 91.1

So for COC1CC2CCC(C)C(O)(O2)C(=O)C(=O)N2CCCCC2C(=O)OC(C(C)CC2CCC(O)C(OC)C2)CC(=O)C(C)C=C(C)C(O)C(OC)C(=O)C(C)CC(C)C=CCCC=C1C (stereo not shown) , the logged MESO1 viability (%) turned out to be 80.5

So for "CO[C@@H]1/C=C/C=C/[C@@H](C)C[C@@H](C)C(=O)C[C@H](O)/C(C)=C/[C@@H](C)C(=O)C[C@@H]([C@H](C)C[C@@H]2CC[C@@H](O)[C@H](OC)C2)OC(=O)[C@@H]2CCCCN2C(=O)C(=O)[C@]2(O)O[C@@H](CC[C@H]2C)C1" , the logged MESO1 viability (%) turned out to be 91.8

###

procedure-summary: Cytotoxicity assay (CellTiter-Glo, 72 h), MESO-1
Type: cell-based
condition-details: human, MESO-1 malignant pleural mesothelioma cells, conc 1.5625 uM; raw replicate data; read-out: MESO1 viability (%)
property-name: viability at 72 h, 1.5625 uM
State the value, then name its unit.

Known results for compounds:
[
  {
    "compound": "CO[C@H]1C[C@@H]2CC[C@@H](C)[C@@](O)(O2)C(=O)C(=O)N2CCCC[C@H]2C(=O)O[C@H]([C@H](C)C[C@@H]2CC[C@@H](O)[C@H](OC)C2)CC(=O)[C@H](C)/C=C(\\C)[C@@H](O)CC[C@H](C)/C=C/C=C/C=C/1C [Compound 7]",
    "measured-result": "70.1%"
  },
  {
    "compound": "COC1CC2CCC(C)C(O)(O2)C(=O)C(=O)N2CCCCC2C(=O)OC(C(C)CC2CCC(O)C(OC)C2)CC(=O)C(C)C=C(C)C(O)C(OC)C(=O)C(C)CC(C)C=CCCC=C1C (centres unmarked) [Compound 15, 19,20-dihidro-rapamycin]",
    "measured-result": "69.2%"
  },
  {
    "compound": "CO[C@H]1C[C@@H]2CC[C@@H](C)[C@@](O)(O2)C(=O)C(=O)N2CCCC[C@H]2C(=O)O[C@H]([C@H](C)C[C@@H]2CC[C@@H](O)[C@H](OC)C2)CC(=O)[C@H](C)/C=C(\\C)[C@@H](O)[C@@H](OC)C(=O)[C@H](C)C[C@H](C)/C=C/C=C/C=C/1C [Compound 1, rapamycin, reference compound]",
    "measured-result": "76.4%"
  }
]

So for COC1CC2CCC(C)C(O)(O2)C(=O)C(=O)N2CCCCC2C(=O)OC(C(C)CC2CCC(O)C(OC)C2)CC(=O)C(C)C=C(C)C(O)CC(=O)C(C)C=C(C)C=CC=CC=C1C (centres unmarked) [Compound 14] , the logged viability at 72 h, 1.5625 uM turned out to be 79.3%

So for COC1CC2CCC(C)C(O)(O2)C(=O)C(=O)N2CCCCC2C(=O)OC(C(C)CC2CCC(O)C(OC)C2)CC(O)CC(=O)C(C)C=C(C)C(O)CC(=O)C(C)CC(C)C=CC=CC=C1C (centres unmarked) [Compound 13] , the logged viability at 72 h, 1.5625 uM turned out to be 71.4%

###

procedure-summary: Cytotoxicity assay (CellTiter-Glo, 72 h), Jurkat
Type: cell-based
condition-details: human, Jurkat cells (T lymphoma), conc 9.53674e-5 uM, raw data (replicates)
# viability at 72 h, 9.53674e-05 uM values compiled below
# unit: % | format: bare number

[
  {
    "compound": "CO[C@H]1C[C@@H]2CC[C@@H](C)[C@@](O)(O2)C(=O)C(=O)N2CCCC[C@H]2C(=O)O[C@H]([C@H](C)C[C@@H]2CC[C@@H](O)[C@H](OC)C2)CC(=O)[C@H](C)/C=C(\\C)[C@@H](O)[C@@H](OC)C(=O)[C@H](C)C[C@H](C)/C=C/C=C/C=C/1C [Compound 1, rapamycin, reference compound]",
    "viability at 72 h, 9.53674e-05 uM / %": 51.5
  },
  {
    "compound": "CO[C@@H]1/C=C/C=C/[C@@H](C)C[C@@H](C)C(=O)C[C@H](O)/C(C)=C/[C@@H](C)C(=O)C[C@@H]([C@H](C)C[C@@H]2CC[C@@H](O)[C@H](OC)C2)OC(=O)[C@@H]2CCCCN2C(=O)C(=O)[C@]2(O)O[C@@H](CC[C@H]2C)C1",
    "viability at 72 h, 9.53674e-05 uM / %": 97.1
  },
  {
    "compound": "CO[C@@H]1C[C@H](C[C@@H](C)[C@@H]2CC(=O)[C@H](C)/C=C(\\C)[C@@H](O)[C@@H](OC)C(=O)[C@H](C)C[C@H](C)/C=C/C=C/C=C(\\C)[C@H](O)C[C@@H]3CC[C@@H](C)[C@@](O)(O3)C(=O)C(=O)N3CCCC[C@H]3C(=O)O2)CC[C@H]1O [Compound 17, (16R)-16-O-demethyl rapamycin]",
    "viability at 72 h, 9.53674e-05 uM / %": 98.1
  }
]

So for "CO[C@H]1C[C@@H]2CC[C@@H](C)[C@@](O)(O2)C(=O)C(=O)N2CCCC[C@H]2C(=O)O[C@H]([C@H](C)C[C@@H]2CC[C@@H](O)[C@H](OC)C2)CC(=O)[C@H](C)/C=C(\C)[C@@H](O)CC[C@H](C)/C=C/C=C/C=C/1C" , the logged viability at 72 h, 9.53674e-05 uM turned out to be 100

So for COC1CC2CCC(C)C(O)(O2)C(=O)C(=O)N2CCCCC2C(=O)OC(C(C)CC2CCC(O)C(OC)C2)CC(O)CC(=O)C(C)C=C(C)C(O)CC(=O)C(C)CC(C)C=CC=CC=C1C (stereo not drawn) , the logged viability at 72 h, 9.53674e-05 uM turned out to be 100

So for COC1CC2CCC(C)C(O)(O2)C(=O)C(=O)N2CCCCC2C(=O)OC(C(C)CC2CCC(O)C(OC)C2)CCC(C)C=C(C)C(O)C(OC)C(=O)C(C)CC(C)C=CC=CC=C1C (stereo not drawn) , the logged viability at 72 h, 9.53674e-05 uM turned out to be 104

So for COC1CC2CCC(C)C(O)(O2)C(=O)C(=O)N2CCCCC2C(=O)OC(C(C)CC2CCC(O)C(OC)C2)CC(=O)C(C)C=C(C)C(O)CC(=O)C(C)C=C(C)C=CC=CC=C1C (stereo not drawn) , the logged viability at 72 h, 9.53674e-05 uM turned out to be 100

So for COC1CC2CCC(C)C(O)(O2)C(=O)C(=O)N2CCCCC2C(=O)OC(C(C)CC2CCC(O)C(OC)C2)CC(=O)C(C)C=C(C)C(O)C(OC)C(=O)C(C)CC(C)C=CCCC=C1C (stereo not drawn) , the logged viability at 72 h, 9.53674e-05 uM turned out to be 98.3

So for "CO[C@H]1C[C@@H]2CC[C@@H](C)[C@@](O)(O2)C(=O)C(=O)N2CCCC[C@H]2C(=O)O[C@H]([C@H](C)C[C@@H]2CC[C@@H](O)[C@H](OC)C2)CC(=O)[C@H](C)/C=C(\C)[C@@H](O)CC(=O)[C@H](C)C[C@H](C)/C=C/C=C(C)/C=C/1C" , the logged viability at 72 h, 9.53674e-05 uM turned out to be 101

###

# viability at 72 h, 12.5 uM values compiled below
procedure-summary: Cytotoxicity assay (CellTiter-Glo, 72 h), MESO-1
Assay type: cell-based
condition-details: human, MESO-1 malignant pleural mesothelioma cells, conc 12.5 uM; raw replicate data; read-out: MESO1 viability (%)
State the value, then name its unit.

[
  {
    "molecule": "CO[C@@H]1/C=C/C=C/[C@@H](C)C[C@@H](C)C(=O)C[C@H](O)/C(C)=C/[C@@H](C)C(=O)C[C@@H]([C@H](C)C[C@@H]2CC[C@@H](O)[C@H](OC)C2)OC(=O)[C@@H]2CCCCN2C(=O)C(=O)[C@]2(O)O[C@@H](CC[C@H]2C)C1",
    "viability at 72 h, 12.5 uM": "63.3%"
  },
  {
    "molecule": "COC1CC2CCC(C)C(O)(O2)C(=O)C(=O)N2CCCCC2C(=O)OC(C(C)CC2CCC(O)C(OC)C2)CC(=O)C(C)C=C(C)C(O)CC(=O)C(C)C=C(C)C=CC=CC=C1C (centres unmarked)",
    "viability at 72 h, 12.5 uM": "72.5%"
  },
  {
    "molecule": "CO[C@H]1C[C@@H]2CC[C@@H](C)[C@@](O)(O2)C(=O)C(=O)N2CCCC[C@H]2C(=O)O[C@H]([C@H](C)C[C@@H]2CC[C@@H](O)[C@H](OC)C2)CC(=O)[C@H](C)/C=C(\\C)[C@@H](O)[C@@H](OC)C(=O)[C@H](C)C[C@H](C)/C=C/C=C/C=C/1C [Compound 1, rapamycin, reference compound]",
    "viability at 72 h, 12.5 uM": "71.1%"
  },
  {
    "molecule": "COC1CC2CCC(C)C(O)(O2)C(=O)C(=O)N2CCCCC2C(=O)OC(C(C)CC2CCC(O)C(OC)C2)CCC(C)C=C(C)C(O)C(OC)C(=O)C(C)CC(C)C=CC=CC=C1C (centres unmarked)",
    "viability at 72 h, 12.5 uM": "59.2%"
  }
]

Field: next molecule
So for "CO[C@H]1C[C@@H]2CC[C@@H](C)[C@@](O)(O2)C(=O)C(=O)N2CCCC[C@H]2C(=O)O[C@H]([C@H](C)C[C@@H]2CC[C@@H](O)[C@H](OC)C2)CC(=O)[C@H](C)/C=C(\C)[C@@H](O)CC(=O)[C@H](C)C[C@H](C)/C=C/C=C(C)/C=C/1C" , the logged viability at 72 h, 12.5 uM turned out to be 98%
